target: Cellular tumor antigen p53 (Homo sapiens) (UniProt P04637); assay: nuclear p53 accumulation, HPV+ cells – imaging, p53-positive nuclei imaging, 24 h, 48 h (AID 1508601); conditions: 24/48 h, measured here: p53 positive nuclei at 24 h, stronger effect = higher value, concentration not given here
Sequence (P04637 whole entry, looked up): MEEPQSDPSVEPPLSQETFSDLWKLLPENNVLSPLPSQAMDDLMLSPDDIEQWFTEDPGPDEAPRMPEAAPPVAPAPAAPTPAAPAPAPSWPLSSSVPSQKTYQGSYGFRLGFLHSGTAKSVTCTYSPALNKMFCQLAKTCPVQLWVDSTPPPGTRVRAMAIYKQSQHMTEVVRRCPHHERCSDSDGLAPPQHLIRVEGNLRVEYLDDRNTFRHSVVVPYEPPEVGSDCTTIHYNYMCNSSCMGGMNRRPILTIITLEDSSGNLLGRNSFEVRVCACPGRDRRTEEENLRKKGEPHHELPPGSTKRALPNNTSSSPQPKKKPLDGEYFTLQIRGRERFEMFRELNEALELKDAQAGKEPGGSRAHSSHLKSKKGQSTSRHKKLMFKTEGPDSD
Among all 5,700 compounds or so, about 85 (1%) were called active. The sample as a whole holds a higher share of actives than the screen did.
Assignment: determine reported p53-positive nuclei, normalised for the given molecules.
Answers are plain numbers, in %.

Solved cases (3 shown):
CCCCCCCCNC(=O)Cc1c(C)n(C(=O)c2ccc(Cl)cc2)c2ccc(OC)cc12 ... -0.0319
O=C(Nc1ccc2nccnc2c1)c1csc(Cc2ccccc2)n1 ... 0.426
CC(Oc1ccc2c(c1)OCO2)C(=O)N(Cc1nccn1C)C(C)C (configuration not stated) ... 0.148

Quick request: p53-positive nuclei, normalised for each listed item, please.
1. OCCCCCNc1nccc(-c2cnn(-c3ccc(F)cc3)c2)n1
2. CC(C)CC1(CO)CCCN(C(=O)c2cccc(C#CC(C)(C)O)c2)C1 (configuration not stated)
3. CCCCCNC(=O)N1CCC2(CC1)Nc1ccccc1N(CC1CC1)C2=O
4. O=C(O)CCC/C=C\C[C@H]1C(=O)C[C@@H](O)[C@@H]1/C=C/[C@@H](O)CCc1ccccc1
5. CCCCC/C=C\C/C=C\C/C=C\CCCCCCC(=O)OC
6. NC(=O)c1ccc(-c2nc(-c3ccc4c(c3)OCCO4)c(-c3ccccn3)[nH]2)cc1
7. O=C1OC2(c3ccc(O)cc3Oc3cc(Oc4ccc(O)cc4)ccc32)c2ccccc21 (configuration not stated)
8. O=Nc1c(-c2c(O)[nH]c3cc(Br)ccc23)[nH]c2ccccc12

Solution:
0.508
0.27
-0.154
0.0378
0.00725
-0.0284
-0.118
0.0936

// input: 5 molecules below; output: p53-positive nuclei, normalised for each
1. NC(=Nc1ccc(F)cc1)NO
2. OCCCCCNc1nccc(-c2cnn(-c3ccccc3F)c2)n1
3. CN(C)c1ccc(C(=O)NCCCCCC(=O)NO)cc1
4. O=C(c1ccccc1-c1nn[nH]n1)N1CCc2[nH]cnc2C1c1ccccn1 (configuration not stated)
5. C#C[C@]1(O)CCC2C3CCc4cc(O)ccc4C3CC[C@@]21C (some centres not stated)

Solution:
[-0.0286, -0.0884, 0.257, -0.0711, 8.99]

Please supply p53-positive nuclei, normalised for each of the following items, keeping them in order.
1. CC(C)OC(=O)CCC/C=C\C[C@@H]1[C@@H](/C=C/[C@@H](O)CCc2ccccc2)[C@H](O)C[C@@H]1O
2. O=C(CCn1cnnn1)N1CCc2[nH]nc(-c3ccc4c(c3)OCO4)c2C1
3. CCCCCCCCCC(=O)CC(=O)N[C@H]1CCOC1=O
4. Cn1ncc(NC(=O)CCc2cn3ccccc3n2)n1
5. CCCCC[C@H](O)/C=C/[C@H]1[C@H](O)CC(=O)[C@@H]1C/C=C\CCCC(=O)OC
6. O=C(/C=C/c1cccc(C(=O)NO)c1)NO

Solution:
1. -0.0131
2. 0.111
3. -0.0502
4. -0.142
5. 0.249
6. 0.124

----------
I'd appreciate it if you could supply nuclei count, normalised values for the items below.
test: nuclear p53 accumulation, HPV+ cells – imaging, p53-positive nuclei imaging, 24 h, 48 h (AID 1508601); conditions: 24/48 h, measured here: cell number at 48 h, Library stock concentration: 41 uM
In all, about 5,700 compounds went through this assay and about 85 (1%) were called active. This excerpt belongs to a sample that is enriched for actives.
Answers are plain numbers, in %.

# count of solved cases: 2
COc1ccc(N2C(=O)C(=Cc3ccc([N+](=O)[O-])s3)SC2=S)cc1 ... 108
CN(NC(=O)CC(=O)NN(C)C(=S)c1ccccc1)C(=S)c1ccccc1 ... 100

State recorded nuclei count, normalised for all listed molecules.
1. OCC1OC(n2cnc3c2NC=NCC3O)CC1O (stereo not given)
2. Nc1ccn(C2OC(CO)C(O)C2F)c(=O)n1 (stereo not given)
3. N#CSc1cc(SC#N)c(N)nc1N
4. OC(c1cc(C(F)(F)F)nc2c(C(F)(F)F)cccc12)[C@H]1CCCCN1 (stereo not given in full)
5. CCCCCCCCCCCCCC=CC(O)C(CO)N(C)C (stereo not given)

Solution:
1. 118
2. 50.8
3. 108
4. 120
5. 110

Hi there! I need nuclei count, normalised for each item below, if you can.
1. O=C(O)c1ccccc1SC1=NS(=O)(=O)c2ccccc21
2. CC(=O)OC1C(=O)[C@]2(C)C(O)CC3OC[C@@]3(OC(C)=O)C2C(OC(=O)c2ccccc2)[C@]2(O)CC(OC(=O)C(O)C(NC(=O)c3ccccc3)c3ccccc3)C(C)=C1C2(C)C (stereo not given in full)
3. COC(=O)C#Cc1ccc([N+](=O)[O-])cc1

Solution:
[127, 28.6, 114]

----------
Record form. Attribute: nuclei count, normalised. Fill in for each entry.
assay: nuclear p53 accumulation, HPV+ cells – imaging, p53-positive nuclei imaging, 24 h, 48 h (AID 1508601); details: 24/48 h, measured here: cell number at 24 h, Library stock concentration: 2 mM
Screen size: about 5,700 compounds; about 85 (1%) were called active. The entries come from a sample that favours actives as a whole.
Answers are plain numbers, in %.

The cases that follow already have their nuclei count, normalised on record.
COc1cc(C(=O)NS(=O)(=O)c2ccccc2C)ccc1Cc1cn(C)c2ccc(NC(=O)OC3CCCC3)cc12 ... 113
OCc1c[nH]c2ccccc12 ... 124
COC(=O)C=CC(=O)N(O)CCCCNCc1ccc(COC(=O)Nc2cccc3ccccc23)cc1 ... 116
CCCCN(Cc1ccc(C(=O)NO)cc1)C(=O)Nc1ccccc1 ... 114

Count: 4. Required value per item: nuclei count, normalised.
1. CCN1CCN(Cc2ccc(NC(=O)c3ccc(C)c(Oc4ccnc5[nH]ccc45)c3)cc2C(F)(F)F)CC1
2. Nc1ccccc1NC(=O)c1ccc(CNc2nccc(-c3cccnc3)n2)cc1
3. CC(C)C1C(=O)NC(CCCN=C(N)N)C(=O)NCC(=O)NC(CC(=O)O)C(=O)NC(Cc2ccccc2)C(=O)N1C (stereo not given)
4. CCCCc1ccc(N=CNO)c(C)c1

Solution:
97.9
125
88.2
104

----------
biological target: Cellular tumor antigen p53 (Homo sapiens); test: nuclear p53 accumulation, HPV+ cells – imaging, p53-positive nuclei imaging, 24 h, 48 h (AID 1508601); settings: 24/48 h, Library stock concentration: 1.67 mM, stronger effect = higher value
The campaign covered roughly 5,700 compounds. About 85 (1%) were called active. What follows is part of a selection rich in actives, with near analogues and random picks from the rest.
So I've got a bunch of compounds here, and I need their p53-positive nuclei, normalised values.
One number for each entry, in %.

Please review the following examples before continuing.
CCOC(=O)NC1CCC2C(C1)CC1C(=O)OC(C)C1C2C=Cc1ccc(-c2cccc(F)c2)cn1 (stereo not given) ... 0.0724
O=C(O)CCCCCCCCCCCNC(=O)NC12CC3CC(CC(C3)C1)C2 ... 0.0433
CNC(=O)c1ccc(Nc2ncc(C(F)(F)F)c(NCc3nccnc3N(C)S(C)(=O)=O)n2)cc1 ... 0.138
CN(CCC(Oc1ccc(-c2ccccc2)cc1)c1ccc(F)cc1)CC(=O)O (stereo not given) ... 0.114
CC(C)(C)Nc1nc2cc(Cl)c(Cl)cc2nc1S(C)(=O)=O ... -0.239

Look at each compound and report its p53-positive nuclei, normalised.
1. COc1ccc(CC(NC(=O)C(C)NC(=O)CN2CCOCC2)C(=O)NC(Cc2ccccc2)C(=O)[C@@]2(C)CO2)cc1 (stereo not given in full)
2. O=C1CN2Cc3c(ccc(Cl)c3Cl)N=C2N1
3. COc1cc(OC)c2c(=O)[nH]c(-c3cc(C)c(OCCO)c(C)c3)nc2c1

Solution:
1: 103; 2: 89.8; 3: 0.07

State recorded p53-positive nuclei, normalised for all listed compounds.
1. O=C1NCCSc2c1sc1ccc(O)cc21
2. CCN(CC)c1ccc(C=NNC(=O)c2ccc(O)cc2)cc1

Solution:
0.37
-0.0464

----------
molecular target: Cellular tumor antigen p53 (Homo sapiens) (UniProt P04637); assay: nuclear p53 accumulation, HPV+ cells – imaging, p53-positive nuclei imaging, 24 h, 48 h (AID 1508601); details: 24/48 h, Library stock concentration: 2 mM
Hit rate of the full screen: of about 5,700 compounds, about 85 (1%) were called active. Rule as the data show it: active = p53-positive nuclei above about 36% (passing the limit was not always enough); inactive = the rest. For the sample, actives were picked, then their nearest neighbours and some compounds at random.
Can you answer with just one of these options? active, inactive

CN1CCC(c2c(O)cc(O)c3c(=O)cc(-c4ccccc4Cl)oc23)C1CO (stereo not given) ... active
COc1cc(C(=O)NS(=O)(=O)c2ccccc2C)ccc1Cc1cn(C)c2ccc(NC(=O)OC3CCCC3)cc12 ... inactive
CC(CCC(=O)O)C1CC[C@H]2[C@@H]3C(O)C[C@@H]4CC(O)CC[C@]4(C)[C@@H]3CC[C@]12C (stereo not given in full) ... inactive
COc1ccc2nc3ccc(OC)cc3c(SCCCN)c2c1 ... inactive
COC(=O)N1C(=O)[C@](c2ccccc2)(C2CCCC2)N1C(=O)OC ... inactive

Exercise: Name the outcome recorded for CS(=O)(=O)N1CCN(Cc2cc3nc(-c4cccc5[nH]ncc45)nc(N4CCOCC4)c3s2)CC1 in the assay.
Solution: inactive

Exercise: What did the test return for COc1cc(=C2C=c3ccccc3=N2)[nH]c1=Cc1[nH]c(C)cc1C ?
Solution: active

Exercise: Kindly provide the recorded test outcome for the following molecule: Nc1ccccc1NC(=O)c1ccc(CNc2nccc(-c3cccnc3)n2)cc1
Solution: inactive

Exercise: Name the outcome recorded for COc1ccc(-c2nc(N3CCOCC3)c3sc(CN(C)c4ncc(C(=O)NO)cn4)cc3n2)cn1 in the assay.
Solution: active

Exercise: Returns: the outcome recorded for O=C(Nc1ccc(-c2ccnc(Nc3ccc(N4CCOCC4)cc3)n2)cc1)C1CCCN1 (stereo not given) in this assay.
Solution: inactive

Exercise: Could you please tell me the result logged for COc1ccc(-c2ccc3ncc4c(c3c2)n(-c2ccc(N3CCNCC3)c(C(F)(F)F)c2)c(=O)n4C)cn1 in this assay?
Solution: active

Exercise: Hi team, can someone confirm the assay call for CCc1cnn2c(NCc3ccc[n+]([O-])c3)cc(N3CCCCC3CCO)nc12 (stereo not given) ?
Solution: inactive

Exercise: Dear all, I need the recorded test outcome for CN1CCC(c2c(O)cc(O)c3c(=O)cc(-c4ccccc4Cl)oc23)C(O)C1 (stereo not given) , thank you.
Solution: inactive

Exercise: For CN1CCN(C(=S)SSC(=S)N2CCN(C)CC2)CC1 , what call appears in the results of this test?
Solution: active

Exercise: Tell me the recorded outcome of this test for CCN1CCN(Cc2ccc(NC(=O)c3ccc(C)c(Oc4ccnc5[nH]ccc45)c3)cc2C(F)(F)F)CC1 .
Solution: inactive

Exercise: Hi, sorry to bother you, what did the test record for O=C1NCCCc2c1oc1ccc(O)cc21 ?
Solution: inactive
